This collection of values is drawn from patent US20030158387A1.

Reported EC50 (aequorin luminescence, CHO-K1 cells expressing CCR5) values for a set of binders
- TEST_TARGET: chemokine receptor 5 (CCR5) (human, UniProt P51681 1-352)
- Sequence (P51681 whole entry): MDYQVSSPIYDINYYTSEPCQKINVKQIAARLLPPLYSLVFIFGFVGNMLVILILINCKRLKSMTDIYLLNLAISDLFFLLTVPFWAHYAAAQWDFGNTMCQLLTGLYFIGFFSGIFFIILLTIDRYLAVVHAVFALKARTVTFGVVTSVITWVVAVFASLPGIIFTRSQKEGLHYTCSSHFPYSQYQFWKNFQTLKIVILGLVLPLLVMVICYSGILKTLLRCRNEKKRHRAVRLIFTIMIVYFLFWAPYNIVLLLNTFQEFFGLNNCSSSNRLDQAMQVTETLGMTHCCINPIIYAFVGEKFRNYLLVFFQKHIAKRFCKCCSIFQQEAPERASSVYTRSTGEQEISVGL
- TEST_DESCRIPTION: cell-based or functional assay
*: point of attachment. Nonanoyl = CCCCCCCCC(=O)*
Write the value in nM as a bare number.

Record excerpt, results attached:
>  <BINDER>
HCC-1, residues 6-74 (ligand, also called HCC-1[6-74]) SSRGPYHPSECCFTYTTYKIPRQRIMDYYETNSQCSKPGIVFITKRGHSVCTNPSDKWVQDYIKDMKEN

>  <QUANTITATIVE_RESULT>
402

$$$$
>  <BINDER>
NNY-HCC-1[10-74] (nonanoyl-HCC-1[10-74]) (ligand, ends and bridges not checked, Chemokine compound analog, synthetic) Nonanoyl-PYHPSECCFTYTTYKIPRQRIMDYYETNSQCSKPGIVFITKRGHSVCTNPSDKWVQDYIKDMKEN

>  <QUANTITATIVE_RESULT>
0.453

$$$$

Q) Could you tell me which EC50 (aequorin luminescence, CHO-K1 cells expressing CCR5) is on file for HCC-1[11-74] (ligand, Synthetic, oxidatively folded) YHPSECCFTYTTYKIPRQRIMDYYETNSQCSKPGIVFITKRGHSVCTNPSDKWVQDYIKDMKEN ?
A) 224
